Reported Km,GGG (uM); with LPESG peptide values are given for each entry in this list.
# TESTED_SYSTEM: T1, Gly-Gly-Gly-COOH
# T1 chain: GGG
READOUT_NAME: Km,GGG (uM); with LPESG peptide (µM)

[[record]]
protein = "4S.6C (protein) QAKPQIPKDKSKVAGYIEIPDADIKEPVYPGPATREQLDRGVSFVEENESLDDQNISITGHTAIDRPNYQFTNLRAAKKGSMVYFKVGNETRKYKMTSIRNVKPTAVEVLDEQKGKDKQLTLVTCDDYNFETGVWETRKIFVATEVK"
value_unit = "µM"
recorded_value = 36000

[[record]]
protein = "4S.6B (protein) QAKPQIPKDKSKVAGYIEIPDADIKEPVYPGPATREQLDRGVSFVEENESLDDQNISISGHTAIDRPNYQFTNLPAAKKGSMVYFKVGNETRKYKMTSIRNVKPTAVEVLDEQKGKDKQLTLVTCDDYNPETGVWETRKIFVATEVK"
value_unit = "µM"
recorded_value = 15700

[[record]]
protein = "eSrtA(4S-5) (protein) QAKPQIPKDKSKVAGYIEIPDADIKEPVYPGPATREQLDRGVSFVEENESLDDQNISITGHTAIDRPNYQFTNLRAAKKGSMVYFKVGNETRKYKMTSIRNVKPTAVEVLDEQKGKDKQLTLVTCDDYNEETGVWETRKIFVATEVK"
value_unit = "µM"
recorded_value = 26700

[[record]]
protein = "eSrtA(4S-6) (protein) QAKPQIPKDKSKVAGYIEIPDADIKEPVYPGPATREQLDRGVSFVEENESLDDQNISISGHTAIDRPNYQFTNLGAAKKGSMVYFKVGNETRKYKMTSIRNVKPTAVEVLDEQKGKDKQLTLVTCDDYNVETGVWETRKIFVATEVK"
value_unit = "µM"
recorded_value = 4950

